B1: HDV Ribozyme (parent)
chain: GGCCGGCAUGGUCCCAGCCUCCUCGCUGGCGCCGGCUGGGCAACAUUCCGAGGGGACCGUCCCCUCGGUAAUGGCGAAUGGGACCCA

Variants of: B1
Experiment: self-cleavage, relative activity (ratio to wild type); higher = more cleavage; co-transcriptional
Give class 1 when the value for self-cleavage is at least 0.6. Give class 0 when it is less.

Observe how each entry below is paired with its result.
GGCCGGCAUGGUCCCAGCCUCCUCGCUGGCGCCGGCUGGGCAACAUACCGAGGGGACCGUCCCCUGGGUAAUGGCGAAUGGGACCCA = class 1
GGCCGGCAUGGUCCCAUCCUCCUCGCUGGCGCCGGCUGGGCAACAUUCCGAGGGGACCGUCCCCUCCGUAAUGGCGAAUGGGACCCA = class 1
GGCCGGCAUGGUCCCAGCCUCCUCGCUGGCGCCGGCUGGGCAACGUUCGGAGGGGACCGUCCCCUCGGUAAUGGCGAAUGGGACCCA = class 1
GGCCGGCAUGGUCCCAGCCUACUCGCUGGCGCCGGCUGGGCAACAUUCCGAGGGGACCGUCCCCUCGGUAAUGGCGAAUGGGAACCA = class 0
GGCCGGCAUGGUCCCAGCCUCCUCGCUGGCGCCGGCUGGGCAACAUUGCGAGGGGACCGUCCCCACGGUAAUGGCGAAUGGGACCCA = class 0
GGCCGGCAUGGUCCCAGCCUCCUCGUUGGCGCCGGCUGGGCAACAUUCCGAGGGGACCGUCCCCUCGGUAUUGGCGAAUGGGACCCA = class 1

Decide: self-cleavage of `GGCCGGCAUGGUCCCAGCCUCCUCGUUGGCGCCGGCUGGCCAACAUUCCGAGGGGACCGUCCCCUCGGUAAUGGCGAAUGGGACCCA` >= 0.6?
class 1

Could you please find out whether `GGCGGGCAUGGUCCCAGCCUCCUCGCUGGCGCCGGCUGGGCAACAUUCCGAGGGGACCGUCCCCUCGGUAAUGGCGAAUGGGACCGA` has self-cleavage that meets 0.6 or exceeds it?
class 0

Is it the case that `GGCCGACAUGGUCCCAGCCUCCUCGCUGGCGCCGGCUGGGCAACAUUCCGAGGGGACCGUACCCUCGGUAAUGGCGAAUGGGACCCA` has self-cleavage reaching or exceeding 0.6?
class 1

meta.source: the RNAGym collection of RNA variant scans (doi:10.7554/elife.80360)
